// provenance: patent US6083940A

Target: Rat Prostate Androgen Receptor (Rattus norvegicus, UniProt P15207)
Construct: from tissue; host or cells: prostate cytosol (100,000×g supernatant) of gonadectomized male rats
Sequence (P15207 1-902): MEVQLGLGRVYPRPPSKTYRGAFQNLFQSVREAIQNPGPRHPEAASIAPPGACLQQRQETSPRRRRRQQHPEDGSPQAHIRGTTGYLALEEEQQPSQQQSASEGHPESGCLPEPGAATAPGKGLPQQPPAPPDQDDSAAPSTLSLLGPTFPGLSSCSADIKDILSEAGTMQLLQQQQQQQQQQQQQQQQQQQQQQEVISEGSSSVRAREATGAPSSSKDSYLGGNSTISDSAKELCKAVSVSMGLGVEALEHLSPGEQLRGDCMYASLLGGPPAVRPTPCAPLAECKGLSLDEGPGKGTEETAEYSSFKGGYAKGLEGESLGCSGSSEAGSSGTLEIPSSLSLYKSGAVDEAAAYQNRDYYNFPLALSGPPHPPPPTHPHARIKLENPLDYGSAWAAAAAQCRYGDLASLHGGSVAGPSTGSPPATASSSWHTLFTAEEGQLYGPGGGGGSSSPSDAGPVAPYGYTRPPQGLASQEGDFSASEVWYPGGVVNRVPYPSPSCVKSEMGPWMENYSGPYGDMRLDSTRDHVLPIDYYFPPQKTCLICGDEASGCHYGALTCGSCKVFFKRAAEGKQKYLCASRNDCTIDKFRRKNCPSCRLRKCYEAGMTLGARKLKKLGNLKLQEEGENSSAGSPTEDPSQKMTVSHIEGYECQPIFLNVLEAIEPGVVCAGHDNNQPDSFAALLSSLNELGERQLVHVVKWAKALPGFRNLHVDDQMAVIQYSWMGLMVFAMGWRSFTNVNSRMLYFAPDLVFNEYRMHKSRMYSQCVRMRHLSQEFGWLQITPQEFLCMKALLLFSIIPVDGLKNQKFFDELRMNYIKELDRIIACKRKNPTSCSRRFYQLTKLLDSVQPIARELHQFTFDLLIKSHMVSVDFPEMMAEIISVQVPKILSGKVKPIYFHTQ
Assay: Rat Prostate Androgen Receptor Competition Assay
Format: binding
Conditions: 5α-DHT set at 100; conc. of 5αDHT at 50% binding inhibition/conc. competitor at 50% binding inhibition × 100
# Lookup of reported Relative Binding Affinity keyed by entry
Please give only the number in your answer, with no unit.

These solved cases illustrate the format of a correct answer.
[
  {
    "molecule": "CCC[C@]1(O)CC[C@H]2[C@@H]3CCC4=CC(=O)CCC4=C3CC[C@@]21C",
    "Relative Binding Affinity": 5.7
  },
  {
    "molecule": "C[C@]12Cc3nonc3C[C@@H]1CC[C@@H]1[C@@H]2CC[C@@]2(C)[C@H]1CC[C@@]21CCCO1",
    "Relative Binding Affinity": 5.8
  },
  {
    "molecule": "CC(C)(O)C(=O)Nc1ccc([N+](=O)[O-])c(C(F)(F)F)c1 [Hydroxyflutamide, reference compound]",
    "Relative Binding Affinity": 2.6
  }
]

Query: Form field - read-out: Relative Binding Affinity; system: Rat Prostate Androgen Receptor (Rattus norvegicus, UniProt P15207); submitted item: C#C[C@]1(O)CC[C@H]2[C@@H]3CC[C@H]4Cc5nn(S(C)(=O)=O)cc5C[C@]4(C)[C@H]3CC[C@@]21C [Win 49,596, zanoterone, reference compound]
Response: 2.2
